Test system: E. coli (DH5α)
ASSAY_METHOD_TEXT: Testing of antibiotic activity (TC50, dilution assay, turbidity)
Type: cell-based
ASSAY_CONDITIONS: concentration that inhibits 50% of the growth
ASSAY_ENDPOINT: TC50 in E. coli

Field: example entries. Status: answers known.
>  <COMPOUND>
CC[C@H]1OC(=O)[C@H](C)[C@@H](O[C@H]2C[C@@](C)(OC)[C@@H](O)[C@H](C)O2)[C@H](C)[C@@H](O[C@@H]2O[C@H](C)C[C@H](N(C)C)[C@H]2O)[C@](C)(O)C[C@@H](C)CN(C)[C@H](C)[C@@H](O)[C@]1(C)O [Compound 43, reference compound]

>  <ASSAY_ENDPOINT>
TC50 in E. coli

>  <READOUT_VALUE>
2.3 µM

$$$$
>  <COMPOUND>
CC[C@H]1OC(=O)[C@H](C)C(=O)[C@H](C)[C@@H](O[C@@H]2O[C@H](C)C[C@H](N(C)C)[C@H]2OC(=O)Cc2ccccc2Nc2c(Cl)cccc2Cl)[C@](C)(O)C[C@@H](C)CN(C)[C@H](C)[C@@H](O)[C@]1(C)O [Compound 53]

>  <ASSAY_ENDPOINT>
TC50 in E. coli

>  <READOUT_VALUE>
>50 µM

$$$$
>  <COMPOUND>
CC[C@H]1OC(=O)[C@H](C)[C@@H](O[C@H]2C[C@@](C)(OC)[C@@H](O)[C@H](C)O2)[C@H](C)[C@@H](O[C@@H]2O[C@H](C)CC(N(C)C(=O)CN(C)CCO)[C@H]2O)[C@](C)(O)C[C@@H](C)CN(C)[C@H](C)[C@@H](O)[C@]1(C)O (stereo partly shown) [Compound 45]

>  <ASSAY_ENDPOINT>
TC50 in E. coli

>  <READOUT_VALUE>
>50 µM

$$$$

Specify TC50 in E. coli for CC[C@H]1OC(=O)[C@H](C)C(=O)[C@H](C)[C@@H](O[C@@H]2O[C@H](C)CC(N(C)C)[C@H]2O)[C@](C)(O)C[C@@H](C)CN(C)[C@H](C)[C@@H](O)[C@]1(C)O (stereo partly shown) [Compound 40] and stop.
>50 µM

Every entry's value here was drawn from patent US20080145343A1.
